Listing of recorded pEC50 by entry.
Target: T1, human uPAR (recombinant protein used in ELISA and BLI) (human, UniProt Q03405 23-305, limits assumed)
T1 construct: Whole entry named; also called biotinylated human uPAR
T1 sequence (Q03405 23-305 limits assumed): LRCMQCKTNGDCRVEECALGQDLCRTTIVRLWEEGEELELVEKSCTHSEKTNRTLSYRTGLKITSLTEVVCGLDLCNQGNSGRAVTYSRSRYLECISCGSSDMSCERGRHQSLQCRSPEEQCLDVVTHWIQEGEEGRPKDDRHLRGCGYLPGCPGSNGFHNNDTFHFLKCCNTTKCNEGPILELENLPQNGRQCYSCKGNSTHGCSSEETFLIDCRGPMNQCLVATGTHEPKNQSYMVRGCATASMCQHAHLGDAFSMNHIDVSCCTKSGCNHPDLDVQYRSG
Assay: ELISA, plate-coated human uPAR
pEC50: −log10 of the molar value.
reported_metric: pEC50

binder	recorded_number
Antibody 11857 (antibody, human IgG1, V domains shown) VH: EVQLRQSGPELVKPGASVKISCKASGYTFTDYYMNWVKQSHEKSLEWIGNINPNNGGTDYNQKFKGKATLTVDKSSSTAYMELRSLTSEDSAVYYCARSYGSRFPYWGLGTLVTVSA VL: DIQMTQTTSSLSASLGDRVTISCRASQDITNYLSWYQQKPDGTVKLLIFYTAVLQSGFPLRFSGSGSGADYSLTISNLEQEDFATYFCQQGHTLPWTFGGGTKLEIK	9.28
Antibody 3159 (antibody, human IgG1, V domains shown, Chimeric: mouse VH/VL linked to Herceptin (trastuzumab) human IgG1 / kappa constant regions) VH: QVTLKESGPGILQSSLTLSLTCSLSGFSLSTSGMGVSWIRQPSGKGLEWLAHIYWDDDKRYNPSLKTRLTISKDASRDQVFLKIISVDTADTGTYYCGRRVRNYFSGTSYWYFDVWGTGTTVTVSS VL: DVLMTQTPLSLSVSLGDQASISCRSSQNILHRTGNTYLEWYLQKPGQSPKLLIYKVSNRFSGVPDRFSGSGSGTDFTLKISRLEAEDLGVYYCFQGSYVPFTFGSGTKLEMK	9.28
Antibody 3595 (antibody, human IgG1, V domains shown, Chimeric: mouse VH/VL linked to Herceptin (trastuzumab) human IgG1 / kappa constant regions) VH: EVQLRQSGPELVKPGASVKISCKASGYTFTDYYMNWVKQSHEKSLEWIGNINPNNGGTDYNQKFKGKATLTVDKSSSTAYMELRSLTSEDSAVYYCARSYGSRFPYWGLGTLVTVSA VL: DIQMTQTTSSLSASLGDRVTISCRASQDITNYLSWYQQKPDGTVKLLIFYTSFLQSGVPLRFSGSGSGADYSLTISNLEQEDFATYFCQQGHTLPWTFGGGTKLEIK	10.30
Antibody 8163 (antibody, human IgG1, V domains shown, Chimeric: mouse VH/VL linked to Herceptin (trastuzumab) human IgG1 / kappa constant regions) VH: EVQLVESGGGLVQPGESLTLSCDSNEFDFPSHDMSWVRKTPEKRLELVAAIDSDGGLTYYSNSRERRFIISRDNTKNTLYLQMRSLRSEDTALYYCARRRASYWYFDVWGTGTTVTVSS VL: DILLTQSPAILPVSPGERVSFSCRASQNIGTSIHWYQQRTNGSPRLLIKYASESISGIPSRFSGSGSGTDFTLSINGVESEDIGDYYCQQSNSWPTFGGGTKLEIK	9.39

Ref: patent US20260116983A1
